Species: Homo sapiens
Assay: In vitro inhibition of platelet aggregation by measuring its effect on the ADP-stimulated aggregation of human platelets
Assay type: functional
Kindly state pIC50 for each of the entries shown.
Answers are plain numbers, as −log10 of the molar value.

Below, 5 compounds whose answers are already recorded.
CCCCS(=O)(=O)NC(CC#Cc1ccc2[nH]c(=O)n(CCC3CCNCC3)c(=O)c2c1)C(=O)O (stereo not drawn): 7.43
CCCCS(=O)(=O)NC(CC#Cc1ccc2nc(C)n(CCC3CCNCC3)c(=O)c2c1)C(=O)O (stereo not drawn): 7.37
CCCCS(=O)(=O)NC(CCCc1ccc2c(c1)c(=O)n(CCC1CCNCC1)c(=O)n2Cc1ccccc1)C(=O)O (stereo not drawn): 6.80
CCCCS(=O)(=O)N[C@@H](Cc1ccc(OCCCCC2CCNCC2)cc1)C(=O)O: 7.82
CCCCS(=O)(=O)N[C@@H](CNC(=O)c1ccc2c(c1)C(=O)N(CCC1CCNCC1)C2)C(=O)O: 8.05

List pIC50 for every entry below, keeping the order given.
1. CCCCS(=O)(=O)NC(CCCc1ccc2[nH]c(=O)n(CCC3CCNCC3)c(=O)c2c1)C(=O)O (stereo not drawn)
2. CCCCS(=O)(=O)NC(CCCc1ccc2c(c1)c(=O)n(CCC1CCNCC1)c(=O)n2C)C(=O)O (stereo not drawn)
3. CCCCS(=O)(=O)NC(CC#Cc1ccc2c(c1)c(=O)n(CCC1CCNCC1)c(=O)n2Cc1ccncc1)C(=O)O (stereo not drawn)

Resp:
1. 6.80
2. 6.85
3. 7.13
